Data provenance is paper PMC11784839.

test_target: tau (Homo sapiens, UniProt P10636)
Sequence (P10636 623-695 limits assumed): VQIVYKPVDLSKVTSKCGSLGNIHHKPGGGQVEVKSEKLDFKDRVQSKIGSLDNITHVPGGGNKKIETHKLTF
procedure_summary: MCE Phenols Library screening, tau biosensor cell seeding assay (AvZ)
Format: cell-based
condition_details: average puncta of the two replicates
experimental_readout: av puncta

[[record]]
compound = "O=c1c(O[C@@H]2OC[C@@H](O)[C@H](O)[C@H]2O)c(-c2ccc(O)c(O)c2)oc2cc(O)cc(O)c12"
val = 16057.3

[[record]]
compound = "COc1cc(/C=C/C(=O)O[C@H]2[C@H](O)[C@@H](CO)O[C@@]2(CO)O[C@H]2O[C@H](COC(=O)c3ccc(O)cc3)[C@@H](O)[C@H](O)[C@H]2O)cc(OC)c1O [Tenuifoliside B]"
val = 16324

[[record]]
compound = "COc1cc2ccc(=O)oc2c(O)c1O"
val = 13803.1

[[record]]
compound = "Oc1cc(O)cc(/C=C/c2ccc(O)cc2O)c1"
val = 15614.1

[[record]]
compound = "COc1cc(O)c2c(c1)O[C@H](c1cc(O)cc(O)c1)CC2=O"
val = 11011.8


**Query** Query: av puncta; subject: COc1c(O[C@@H]2O[C@H](CO)[C@@H](O)[C@H](O)[C@H]2O)cc2c(c1O)C(=O)c1c(cc(C)c(O)c1OC)C2=O [Aurantio-obtusin ?-D-glucoside]
**Result** 12342.8

**Query** Query: av puncta; subject: COc1cc(CCC(=O)CC(=O)CCc2ccc(O)c(OC)c2)ccc1O [Tetrahydrocurcumin]
**Result** 17498

* * *

test_target: tau (Homo sapiens)
procedure_summary: MCE Phenols Library screening, tau biosensor cell seeding assay (AvZ)
Type: cell-based
condition_details: average Z score of the two replicates, MCE Phenols Library screen
# note: boundary value -0.6 maps to Not fulfilled; av Z below it maps to Fulfilled

A selection of reference data follows.
[[record]]
compound = "O=C1c2cccc(O)c2C(=O)c2c(O)cccc21"
category = "Fulfilled"

[[record]]
compound = "O=c1c(O)c(-c2ccc(O)cc2)oc2c(O)c(O)cc(O)c12"
category = "Fulfilled"

[[record]]
compound = "COc1cc(CC(C)C(C)Cc2ccc(O)c(OC)c2)ccc1O (centres unmarked) [Dihydroguaiaretic acid]"
category = "Fulfilled"

[[record]]
compound = "O=c1cc(-c2ccc(O)c(O)c2)oc2cc(O[C@@H]3O[C@H](CO)[C@@H](O)[C@H](O)[C@H]3O)c(O)c(O)c12 [6-Hydroxyluteolin 7-glucoside]"
category = "Not fulfilled"


For the next question, use this compound.
**Query** Strictly below -0.6 in av Z? COc1cc(O)cc(/C=C/c2ccc(O)cc2)c1
**Result** Not fulfilled

* * *

test_target: UniProt:P10636
procedure_summary: MCE Phenols Library screening, tau biosensor cell seeding assay (AvZ)
Format: cell-based
condition_details: puncta, replicate 1
experimental_readout: raw data 1
// return a plain number; no unit text

Guide cases for raw data 1, answers given:
[[record]]
compound = "Oc1ccc([C@H]2Oc3cc(O)cc(O)c3C[C@H]2O)cc1 [(-)-Epiafzelechin]"
experimental_readout = "raw data 1"
val = 23970.4

[[record]]
compound = "Oc1ccc(/C=C/c2cc(O)cc(O)c2)cc1"
experimental_readout = "raw data 1"
val = 22084.8

[[record]]
compound = "CC(C)(c1ccc(O)cc1)c1ccc(O)cc1"
experimental_readout = "raw data 1"
val = 27836.8


**Query** Query: raw data 1; subject: O=c1c(O)c(-c2ccc(O[C@@H]3O[C@H](CO)[C@@H](O)[C@H](O)[C@H]3O)c(O)c2)oc2cc(O)cc(O)c12 [Spiraeoside]
**Result** 14202.4

**Query** Query: raw data 1; subject: COc1ccc(CC(=O)c2ccc(O)cc2O)cc1
**Result** 24324.1

* * *

test_target: UniProt:P10636
procedure_summary: MCE Phenols Library screening, tau biosensor cell seeding assay (AvZ)
Assay type: cell-based
condition_details: puncta, replicate 2
# note: boundary value 10000 maps to no; raw data 2 below it maps to yes

A selection of reference data follows.
[[record]]
compound = "COC(=O)Cc1ccc(O)cc1 [Methyl 4-hydroxyphenylacetate]"
category = "yes"

[[record]]
compound = "COc1ccc(CCC(=O)c2ccc(O)cc2)c(OC)c1 [Loureirin A]"
category = "no"

[[record]]
compound = "COC(=O)/C=C/c1ccc(O)cc1 [(E)-Methyl 4-coumarate]"
category = "no"


**Query** Strictly below 10000 in raw data 2? C=C(C)[C@H](CC=C(C)C)Cc1c(O)cc(O)c2c1O[C@H](c1ccc(O)cc1O)CC2=O [Sophoraflavanone G]
**Result** yes

**Query** Strictly below 10000 in raw data 2? CC(C)=CCc1c2c(c(O)c3c1O[C@]14C(=C[C@@H]5C[C@H]1C(C)(C)O[C@@]4(C/C=C(/C)C(=O)O)C5=O)C3=O)C=CC(C)(C)O2 [Morellic acid]
**Result** yes

**Query** Strictly below 10000 in raw data 2? CC(C)(O)CCc1c(O)cc(O)c2c(=O)c(O)c(-c3ccc(O)cc3)oc12 [Noricaritin]
**Result** no

* * *

test_target: UniProt P10636
procedure_summary: MCE Phenols Library screening, tau biosensor cell seeding assay (AvZ)
Type: cell-based
condition_details: Z score, replicate 1
Measured Z repl 1 by item
// return a plain number; no unit text

[[record]]
compound = "OCCc1ccccc1"
experimental_readout = "Z repl 1"
val = 1.167

[[record]]
compound = "O=C1C[C@@H](c2ccc(O)c(O)c2)Oc2cc(O[C@@H]3O[C@H](CO)[C@@H](O)[C@H](O)[C@H]3O)cc(O)c21 [Eriodictyol-7-O-glucoside]"
experimental_readout = "Z repl 1"
val = -0.303

[[record]]
compound = "O=c1c(O)c(-c2ccc(O)c(O)c2)oc2c(O[C@@H]3O[C@H](CO)[C@@H](O)[C@H](O)[C@H]3O)c(O)cc(O)c12"
experimental_readout = "Z repl 1"
val = -0.561

[[record]]
compound = "COC(=O)[C@]1(O)C[C@@H](O)[C@@H](O)[C@H](OC(=O)/C=C/c2ccc(O)c(O)c2)C1"
experimental_readout = "Z repl 1"
val = -0.373

[[record]]
compound = "COc1cc(O)c2c(=O)c(O[C@@H]3O[C@H](CO)[C@@H](O)[C@H](O)[C@H]3O)c(-c3ccc(O[C@@H]4O[C@H](CO)[C@@H](O)[C@H](O)[C@H]4O)cc3)oc2c1 [Complanatuside]"
experimental_readout = "Z repl 1"
val = -0.533

[[record]]
compound = "NCC(c1ccc(O)cc1)C1(O)CCCCC1 (centres unmarked)"
experimental_readout = "Z repl 1"
val = 0.959

[[record]]
compound = "O=C(O)Cc1cccc(O)c1 [3-Hydroxyphenylacetic acid]"
experimental_readout = "Z repl 1"
val = 0.164

[[record]]
compound = "C[C@@H]1O[C@@H](OC[C@H]2O[C@@H](OCCc3ccc(O)c(O)c3)[C@H](O)[C@@H](OC(=O)/C=C/c3ccc(O)c(O)c3)[C@@H]2O)[C@H](O)[C@H](O)[C@H]1O [Forsythoside I]"
experimental_readout = "Z repl 1"
val = -1.102

[[record]]
compound = "COc1cc(-c2coc3cc(O[C@@H]4O[C@H](CO)[C@@H](O)[C@H](O)[C@H]4O)c(OC)c(O)c3c2=O)ccc1O"
experimental_readout = "Z repl 1"
val = -0.293

[[record]]
compound = "O=C(/C=C/c1ccc(O)c(O)c1)O[C@H]1[C@H](O)C[C@](O)(C(=O)O)C[C@H]1O"
experimental_readout = "Z repl 1"
val = 0.935


**Query** Query: Z repl 1; subject: COc1cc(/C=C/C(=O)O)cc(O)c1O [5-Hydroxyferulic acid]
**Result** -0.814

**Query** Query: Z repl 1; subject: O=c1cc(-c2ccc(O)cc2)oc2cc(O[C@@H]3O[C@H](CO)[C@@H](O)[C@H](O)[C@H]3O[C@@H]3OC[C@](O)(CO)[C@H]3O)cc(O)c12
**Result** 1.204

* * *

Measured Z repl 1 by item
test_target: tau (Homo sapiens)
procedure_summary: MCE Phenols Library screening, tau biosensor cell seeding assay (AvZ)
Assay type: cell-based
condition_details: Z score, replicate 1

**Query** Query: Z repl 1; subject: COc1cc2ccc(=O)oc2c(O)c1OC
**Result** 0.561

**Query** Query: Z repl 1; subject: CC1OC(OCC2OC(Oc3c(-c4ccc(O)cc4)oc4cc(OC5OC(C)C(O)C(O)C5O)cc(O)c4c3=O)C(O)C(O)C2O)C(O)C(O)C1O (stereo not shown)
**Result** 0.02

**Query** Query: Z repl 1; subject: COC1=C[C@@H]2[C@@H]3Cc4ccc(OC)c(O)c4[C@]2(CCN3C)CC1=O.Cl [Sinomenine hydrochloride]
**Result** -0.595

**Query** Query: Z repl 1; subject: COc1cc(OC)c2c(=O)cc(-c3ccc(O)c(O)c3)oc2c1
**Result** 1.798

* * *

Measured av Z by item
test_target: tau (Homo sapiens, UniProt P10636)
procedure_summary: MCE Phenols Library screening, tau biosensor cell seeding assay (AvZ)
Assay type: cell-based
condition_details: average Z score of two replicates, Phenols Library screen
// return a plain number; no unit text

Guide cases for av Z, answers given:
[[record]]
molecule = "O=C1C[C@@H](c2ccc(O)c(O)c2)Oc2cc(O[C@@H]3O[C@H](CO)[C@@H](O)[C@H](O)[C@H]3O)cc(O)c21 [Eriodictyol-7-O-glucoside]"
val = 0.057

[[record]]
molecule = "O=c1c(O)c(-c2ccccc2)oc2cc(O)cc(O)c12 [Galangin]"
val = 0.004

[[record]]
molecule = "COc1cc(O)c2c(=O)cc(-c3ccccc3)oc2c1 [Tectochrysin]"
val = 0.055

[[record]]
molecule = "COc1cc(-c2oc3cc(O)cc(O)c3c(=O)c2O[C@@H]2O[C@H](CO[C@@H]3O[C@@H](C)[C@H](O)[C@@H](O)[C@H]3O)[C@@H](O)[C@H](O)[C@H]2O[C@@H]2O[C@@H](C)[C@H](O)[C@@H](O)[C@H]2O)ccc1O [Typhaneoside]"
val = -0.12

[[record]]
molecule = "O=C1C[C@@H](c2ccc(O[C@@H]3O[C@H](CO)[C@@H](O)[C@H](O)[C@H]3O)cc2)Oc2cc(O)ccc21 [Liquiritin]"
val = 0.032

[[record]]
molecule = "O=c1cc(-c2ccc(O)c(O)c2)oc2c([C@@H]3O[C@H](CO)[C@@H](O)[C@H](O)[C@H]3O)c(O)cc(O)c12 [Orientin]"
val = 0.095


**Query** Query: av Z; subject: CC(C)=CCC/C(C)=C/Cc1cc(-c2coc3cc(O)ccc3c2=O)ccc1O [Corylifol A]
**Result** -0.196

**Query** Query: av Z; subject: COc1ccc(-c2cc(=O)c3c(O)cc(OC)cc3o2)cc1 [7,4'-Di-O-methylapigenin]
**Result** -0.001
